From: ChEMBL document CHEMBL3616471

Tested on: PC-3
Assay: Cytotoxicity against human PC3 cells after 72 hrs by MTT assay
Assay type: functional, cell-based
Conditions: PC-3, 72 h
pIC50: −log10 of the molar value.
Exercise: state measured pIC50 for each of the compounds provided.

Incoming: For `C=C(C)[C@@H]1CC[C@]2(COC(=O)c3ccccc3C(F)(F)F)CC[C@]3(C)[C@H](CC[C@@H]4[C@@]5(C)CC[C@H](OC(=O)c6ccccc6C(F)(F)F)C(C)(C)[C@@H]5CC[C@]43C)[C@@H]12` , what is its reported pIC50?
Outgoing: < 4.00

Incoming: Could you tell me which pIC50 is on file for `C=C(C)[C@@H]1CC[C@]2(COC(=O)Cc3ccc(Cl)cc3)CC[C@]3(C)[C@H](CC[C@@H]4[C@@]5(C)CC[C@H](O)C(C)(C)[C@@H]5CC[C@]43C)[C@@H]12` ?
Outgoing: < 4.00

Incoming: # lookup: pIC50 of `C=C(C)[C@@H]1CC[C@]2(COC(=O)c3cccc([N+](=O)[O-])c3)CC[C@]3(C)[C@H](CC[C@@H]4[C@@]5(C)CC[C@H](OC(=O)c6cccc([N+](=O)[O-])c6)C(C)(C)[C@@H]5CC[C@]43C)[C@@H]12`
Outgoing: < 4.00
